Organism: Rattus norvegicus
Test: Open TG-GATES - Regimen: Daily Repeat
Type: toxicity, organism-based, Sprague-Dawley
Set-up: regimen Daily Repeat, gender Male, age 6 weeks
Conditions: in vivo, po, 0 mg/kg, […], tissue Plasma, route gavage, dose level Control, time 28 day
quantity name: gamma-GTP (IU/L)
A number alone suffices; assume IU/L.

Identify measured gamma-GTP corresponding to O=[N+]([O-])c1ccc(O)c([N+](=O)[O-])c1 [2,4-DINITROPHENOL]
0.4

Identify measured gamma-GTP corresponding to C=C(C)[C@H]1Cc2c(ccc3c2O[C@@H]2COc4cc(OC)c(OC)cc4[C@@H]2C3=O)O1 [ROTENONE]
1

Identify measured gamma-GTP corresponding to CCOC(=O)C(C)(C)Oc1ccc(Cl)cc1 [CLOFIBRATE]
0.8

Identify measured gamma-GTP corresponding to Cc1cccc(C)c1OCC(C)N (centres undefined) [MEXILETINE]
2

Identify measured gamma-GTP corresponding to OCCN1CCN(CCCN2c3ccccc3Sc3ccc(C(F)(F)F)cc32)CC1 [FLUPHENAZINE]
1

Identify measured gamma-GTP corresponding to C[C@H]1O[C@H](O[C@H]2[C@H](O)[C@@H](O)[C@@H](O[C@H]3[C@H](O)[C@@H](O)C(O)O[C@@H]3CO)O[C@@H]2CO)[C@H](O)[C@@H](O)[C@@H]1N[C@H]1C=C(CO)[C@@H](O)[C@H](O)[C@H]1O (some centres undefined) [ACARBOSE]
1

Identify measured gamma-GTP corresponding to C[C@H]1C(=O)O[C@@H]2CCN3CC=C(COC(=O)[C@](C)(O)[C@]1(C)O)[C@H]23 [MONOCROTALINE]
1

Identify measured gamma-GTP corresponding to O=C1CN(/N=C/c2ccc([N+](=O)[O-])o2)C(=O)N1 [NITROFURANTOIN]
1.2

Identify measured gamma-GTP corresponding to Cn1cc[nH]c1=S [METHIMAZOLE]
1
